ASSAY: In vivo pharmacokinetics test in mice
APPLIED CONDITIONS: mouse, plasma; Intravenous, 1 mg/kg, female Balb/c mice; read-out: Curve area (0-t) AUC0-last

- COMPOUND: "Cc1sc2c(c1C)C(c1ccc(Cl)cc1)=N[C@@H](CC(=O)Nc1ccc3c(c1)COC3=O)c1nnc(C)n1-2 [Compound 32]"
  AUC(0-t), µM·h: 2.49

---

Each entry below carries its reported IC50.
STUDY SYSTEM: BRD4-BD1 (Homo sapiens (Human))
ASSAY: BRD4 biochemical activity test (TR-FRET), BD1
APPLIED CONDITIONS: read-out: BRD4 Binding (BD1), IC50
RECORDED ENDPOINT: IC50 (nM)

- COMPOUND: "Cc1sc2c(c1C)C(c1ccc(Cl)cc1)=N[C@@H](CC(=O)Nc1cc3c(cc1F)COC3)c1nnc(C)n1-2 [Compound 29]"
  UOM: "nM"
  MEASURED NUMBER: 74
- COMPOUND: "Cc1sc2c(c1C)C(c1ccc(Cl)cc1)=N[C@@H](CC(=O)Nc1ccc3c(c1C)COC3)c1nnc(C)n1-2 [Compound 25]"
  UOM: "nM"
  MEASURED NUMBER: 79
- COMPOUND: "Cc1sc2c(c1C)C(c1ccc(Cl)cc1)=N[C@@H](CC(=O)Nc1ccc3c(c1)[C@H]1CC[C@@H]3O1)c1nnc(C)n1-2 [Compound 35]"
  UOM: "nM"
  MEASURED NUMBER: 155
- COMPOUND: "Cc1sc2c(c1C)C(c1ccc(Cl)cc1)=N[C@@H](CC(=O)Nc1ccc3c(c1)C(=O)NC31CC1)c1nnc(C)n1-2 [Compound 10]"
  UOM: "nM"
  MEASURED NUMBER: 81
- COMPOUND: "Cc1sc2c(c1C)C(c1ccc(Cl)cc1)=N[C@@H](CC(=O)Nc1ccc3c(c1)COC3=O)c1nnc(C)n1-2 [Compound 32]"
  UOM: "nM"
  MEASURED NUMBER: 66
- COMPOUND: "Cc1sc2c(c1C)C(c1ccc(Cl)cc1)=N[C@@H](CC(=O)Nc1ccc3c(c1)C(=O)NC3=O)c1nnc(C)n1-2 [Compound 36]"
  UOM: "nM"
  MEASURED NUMBER: 126
- COMPOUND: "Cc1sc2c(c1C)C(c1ccc(Cl)cc1)=N[C@@H](CC(=O)Nc1ccc3c(c1)C(=O)NC3)c1nnc(C)n1-2 [Compound 1]"
  UOM: "nM"
  MEASURED NUMBER: 65
- COMPOUND: "Cc1cc2c(cc1NC(=O)C[C@@H]1N=C(c3ccc(Cl)cc3)c3c(sc(C)c3C)-n3c(C)nnc31)COC2 [Compound 26]"
  UOM: "nM"
  MEASURED NUMBER: 112
- COMPOUND: "Cc1sc2c(c1C)C(c1ccc(Cl)cc1)=N[C@@H](CC(=O)Nc1ccc3c(c1)CN(S(C)(=O)=O)C3)c1nnc(C)n1-2 [Compound 19]"
  UOM: "nM"
  MEASURED NUMBER: 49
- COMPOUND: "Cc1sc2c(c1C)C(c1ccc(Cl)cc1)=N[C@@H](CC(=O)Nc1ccc3c(c1)C1(CC1)C(=O)N3)c1nnc(C)n1-2 [Compound 9]"
  UOM: "nM"
  MEASURED NUMBER: 49
- COMPOUND: "Cc1sc2c(c1C)C(c1ccc(Cl)cc1)=N[C@@H](CC(=O)Nc1cc3c(cc1Cl)COC3)c1nnc(C)n1-2 [Compound 28]"
  UOM: "nM"
  MEASURED NUMBER: 60
- COMPOUND: "Cc1sc2c(c1C)C(c1ccc(Cl)cc1)=N[C@@H](CC(=O)Nc1ccc3c(c1)CNC3=O)c1nnc(C)n1-2 [Compound 2]"
  UOM: "nM"
  MEASURED NUMBER: 49
- COMPOUND: "Cc1sc2c(c1C)C(c1ccc(Cl)cc1)=N[C@@H](CC(=O)Nc1ccc3c(c1)C(=O)SC3)c1nnc(C)n1-2 [Compound 22]"
  UOM: "nM"
  MEASURED NUMBER: 199
